Reference source: patent US11230540B2

# assay_target: human V1a receptor (Homo sapiens, UniProt P37288)
# Construct: expressed in transfected cells; host or cells: CHO K1 (Chinese hamster ovary), also stably transfected with a modified aequorin
# Sequence (P37288 whole entry): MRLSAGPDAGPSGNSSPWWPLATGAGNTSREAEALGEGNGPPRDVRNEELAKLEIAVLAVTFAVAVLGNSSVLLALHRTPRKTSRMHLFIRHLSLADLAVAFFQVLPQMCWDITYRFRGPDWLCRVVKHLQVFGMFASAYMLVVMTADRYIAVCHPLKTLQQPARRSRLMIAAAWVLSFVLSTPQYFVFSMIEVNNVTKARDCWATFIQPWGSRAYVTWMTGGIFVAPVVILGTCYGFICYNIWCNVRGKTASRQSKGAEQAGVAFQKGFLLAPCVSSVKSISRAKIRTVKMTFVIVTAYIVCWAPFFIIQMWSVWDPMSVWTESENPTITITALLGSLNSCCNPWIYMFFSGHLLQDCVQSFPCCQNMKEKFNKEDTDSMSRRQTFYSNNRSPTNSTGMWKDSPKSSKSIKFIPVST
# experimental_details: Cellular in vitro assay for vasopressin receptor activity, V1a receptor cell line (aequorin luminescence)
# Type: cell-based
# measurement_parameters: selectivity ratio of the IC50 values hV2/hV1a
# Procedure: B-1. Cellular In Vitro Assay for Determining Vasopressin Receptor Activity The identification of agonists and antagonists of the V1a and V2 vasopressin receptors from humans, rats and dogs as well as the quantification of the activity of the compounds of the invention is carried out using recombinant cell lines. […] The bioluminescence of the cell lines is detected using a suitable luminometer [Milligan G, Marshall F, Rees S, Trends in Pharmacological Sciences 17, 235-237 (1996)]. […]
Structures can show the parent of a compound that is named as a salt.
Would you mind telling me the reported ratio IC50 hV2/hV1a of each entry?
One number for each entry.

Solved cases (6 shown):
[[record]]
compound = "CC1(C)CN(C(=O)c2nc(Cn3nc(-c4ccc(Cl)cc4)n(C[C@H](O)C(F)(F)F)c3=O)nn2-c2ncccc2C(F)(F)F)CCO1"
endpoint_label = "ratio IC50 hV2/hV1a"
numeric_result = 214.6

[[record]]
compound = "CC1(O)CCN(C(=O)c2nc(Cn3nc(-c4ccc(Cl)cc4)n(C[C@H](O)C(F)(F)F)c3=O)nn2CCC(F)(F)F)C1 (mixture of isomers) [Example 22]"
endpoint_label = "ratio IC50 hV2/hV1a"
numeric_result = 1.5

[[record]]
compound = "O=C(NCC(F)(F)F)c1nc(Cn2nc(-c3ccc(Cl)cc3)n(C[C@H](O)C(F)(F)F)c2=O)nn1-c1cccnc1Cl"
endpoint_label = "ratio IC50 hV2/hV1a"
numeric_result = 4.7

[[record]]
compound = "NC(CNC(=O)c1nc(Cn2nc(-c3ccc(Cl)cc3)n(C[C@H](O)C(F)(F)F)c2=O)nn1-c1ncccc1C(F)(F)F)C(F)(F)F (mixture of isomers) [Example 51, hydrochloride]"
endpoint_label = "ratio IC50 hV2/hV1a"
numeric_result = 8.8

[[record]]
compound = "O=C(c1nc(Cn2nc(-c3ccc(Cl)cc3)n(C[C@H](O)C(F)(F)F)c2=O)nn1-c1ccccc1Cl)N1CC(O)(C(F)(F)F)C1"
endpoint_label = "ratio IC50 hV2/hV1a"
numeric_result = 18.7

[[record]]
compound = "O=C(NCCC(F)(F)F)c1nc(Cn2nc(-c3ccc(Cl)cc3)n(C[C@H](O)C(F)(F)F)c2=O)nn1-c1ncccc1C(F)(F)F"
endpoint_label = "ratio IC50 hV2/hV1a"
numeric_result = 107.1


Please give ratio IC50 hV2/hV1a for each item listed below.
1. O=C(NCC1(O)CC1)c1nc(Cn2nc(-c3ccc(Cl)cc3)n(C[C@H](O)C(F)(F)F)c2=O)nn1-c1ccccc1Cl
2. CC1(CNC(=O)c2nc(Cn3nc(-c4ccc(Cl)cc4)n(C[C@H](O)C(F)(F)F)c3=O)nn2-c2cnccc2Cl)COC1
3. CON(C)C(=O)c1nc(Cn2nc(-c3ccc(Cl)cc3)n(C[C@H](O)C(F)(F)F)c2=O)nn1-c1cccc(Cl)c1
4. CC1(O)CCN(C(=O)c2nc(Cn3nc(-c4ccc(Cl)cc4)n(C[C@H](O)C(F)(F)F)c3=O)nn2-c2ncccc2OC(F)(F)F)C1 (stereo partly drawn)
5. CC1(CNC(=O)c2nc(Cn3nc(-c4ccc(Cl)cc4)n(C[C@H](O)C(F)(F)F)c3=O)nn2-c2ncccc2OC(F)(F)F)COC1
6. CC(C)(O)CNC(=O)c1nc(Cn2nc(-c3ccc(Cl)cc3)n(C[C@H](O)C(F)(F)F)c2=O)nn1-c1ncccc1OC(F)(F)F

1. 6.2
2. 144.9
3. 5.7
4. 108.7
5. 131.4
6. 124.2

* * *

# assay_target: human V1a receptor (Homo sapiens, UniProt P37288)
# Construct: expressed in transfected cells; host or cells: CHO K1 (Chinese hamster ovary), also stably transfected with a modified aequorin
# experimental_details: Cellular in vitro assay for vasopressin receptor activity, V1a receptor cell line (aequorin luminescence)
# Assay type: cell-based
# measurement_parameters: selectivity ratio of the IC50 values hV2/hV1a
Structures can show the parent of a compound that is named as a salt.
Would you mind telling me the reported ratio IC50 hV2/hV1a of each entry?
Answers are plain numbers.

[[record]]
compound = "CC(C)(O)CNC(=O)c1nc(Cn2nc(-c3ccc(Cl)cc3)n(C[C@H](O)C(F)(F)F)c2=O)nn1-c1cnccc1Cl"
numeric_result = 51.7

[[record]]
compound = "CC(C)(C)OC(=O)N1CCN(C(=O)c2nc(Cn3nc(-c4ccc(Cl)cc4)n(C[C@H](O)C(F)(F)F)c3=O)nn2-c2cccc(F)c2)CC1"
numeric_result = 0.8

[[record]]
compound = "O=C(c1nc(Cn2nc(-c3ccc(Cl)cc3)n(C[C@H](O)C(F)(F)F)c2=O)nn1-c1cccc(F)c1)N1CCNCC1 [Example 41, trifluoroacetate]"
numeric_result = 7.4

[[record]]
compound = "CNC(=O)c1nc(Cn2nc(-c3ccc(Cl)cc3)n(C[C@H](O)C(F)(F)F)c2=O)nn1-c1ncccc1OC"
numeric_result = 3.7


Please give ratio IC50 hV2/hV1a for each item listed below.
1. O=C1CN(C(=O)c2nc(Cn3nc(-c4ccc(Cl)cc4)n(C[C@H](O)C(F)(F)F)c3=O)nn2-c2ccccc2Cl)CCN1
2. CC(C)(C)NC(=O)c1nc(Cn2nc(-c3ccc(Cl)cc3)n(C[C@H](O)C(F)(F)F)c2=O)nn1-c1ncccc1Cl
3. CC(C)(C)CNC(=O)c1nc(Cn2nc(-c3ccc(Cl)cc3)n(C[C@H](O)C(F)(F)F)c2=O)nn1-c1ncccc1C(F)(F)F
4. CC(C)(N)CNC(=O)c1nc(Cn2nc(-c3ccc(Cl)cc3)n(C[C@H](O)C(F)(F)F)c2=O)nn1-c1ncccc1C(F)(F)F

1: 6.0; 2: 25.5; 3: 100.0; 4: 5.1

* * *

Would you mind telling me the reported IC50 of each entry?
# assay_target: human V1a receptor (Homo sapiens, UniProt P37288)
# Construct: expressed in transfected cells; host or cells: CHO K1 (Chinese hamster ovary), also stably transfected with a modified aequorin
# experimental_details: Cellular in vitro assay for vasopressin receptor activity, V1a receptor cell line (aequorin luminescence)
# Type: cell-based
# measurement_parameters: CHO cell line transfected with human V1a receptor; [Arg8]-vasopressin at EC50 concentration; read-out: IC50 hV1a
Answers are plain numbers, in nM.

[[record]]
structure_notation = "O=C(c1nc(Cn2nc(-c3ccc(Cl)cc3)n(C[C@H](O)C(F)(F)F)c2=O)nn1-c1ncccc1C(F)(F)F)N1CC(O)(C(F)(F)F)C1"
endpoint_label = "IC50"
unit_abbreviation = "nM"
numeric_result = 1.35

[[record]]
structure_notation = "O=C(NC1CC1)c1nc(Cn2nc(-c3ccc(Cl)cc3)n(C[C@H](O)C(F)(F)F)c2=O)nn1-c1cccc(F)c1"
endpoint_label = "IC50"
unit_abbreviation = "nM"
numeric_result = 47


Continue with the compound presented below.
What IC50 value was documented for this compound, `CC(C)(C)NC(=O)c1nc(Cn2nc(-c3ccc(Cl)cc3)n(C[C@H](O)C(F)(F)F)c2=O)nn1-c1ncccc1OC(F)(F)F` ? 19.5

* * *

# assay_target: human V1a receptor (Homo sapiens)
# experimental_details: Cellular in vitro assay for vasopressin receptor activity, V1a receptor cell line (aequorin luminescence)
# measurement_parameters: CHO cell line transfected with human V1a receptor; [Arg8]-vasopressin at EC50 concentration; read-out: IC50 hV1a
endpoint_label: pIC50
Numbers only, as −log10 of the molar value.

[[record]]
compound = "CNC(=O)c1nc(Cn2nc(-c3ccc(Cl)cc3)n(C[C@H](O)C(F)(F)F)c2=O)nn1-c1cccc(Cl)c1 [Example 34]"
numeric_result = 7.46


Please give pIC50 for each item listed below.
1. CC(C)(N)CNC(=O)c1nc(Cn2nc(-c3ccc(Cl)cc3)n(C[C@H](O)C(F)(F)F)c2=O)nn1-c1ncccc1OC(F)(F)F [Example 3]
2. CC(C)(C)CNC(=O)c1nc(Cn2nc(-c3ccc(Cl)cc3)n(C[C@H](O)C(F)(F)F)c2=O)nn1-c1ncccc1C(F)(F)F [Example 50]
3. CNC(=O)c1nc(Cn2nc(-c3ccc(Cl)cc3)n(C[C@H](O)C(F)(F)F)c2=O)nn1-c1ccccc1OC [Example 42]
4. O=CN1CCC(NC(=O)c2nc(Cn3nc(-c4ccc(Cl)cc4)n(C[C@H](O)C(F)(F)F)c3=O)nn2-c2cnccc2Cl)C1 (mixture of isomers) [Example 13]
5. O=C(c1nc(Cn2nc(-c3ccc(Cl)cc3)n(C[C@H](O)C(F)(F)F)c2=O)nn1-c1ccccc1Cl)N1CC(O)(C(F)(F)F)C1 [Example 12]

9.08
9.15
8.95
8.82
8.92

* * *

# assay_target: human V1a receptor (Homo sapiens)
# Construct: expressed in transfected cells; host or cells: CHO K1 (Chinese hamster ovary), also stably transfected with a modified aequorin
# experimental_details: Cellular in vitro assay for vasopressin receptor activity, V1a receptor cell line (aequorin luminescence)
# Type: cell-based
# measurement_parameters: selectivity ratio of the IC50 values hV2/hV1a
# Procedure: B-1. Cellular In Vitro Assay for Determining Vasopressin Receptor Activity The identification of agonists and antagonists of the V1a and V2 vasopressin receptors from humans, rats and dogs as well as the quantification of the activity of the compounds of the invention is carried out using recombinant cell lines. […] The bioluminescence of the cell lines is detected using a suitable luminometer [Milligan G, Marshall F, Rees S, Trends in Pharmacological Sciences 17, 235-237 (1996)]. […]
Criterion: ratio IC50 hV2/hV1a strictly under 40. Met: MET. Not met: NOT MET.

[[record]]
compound = "NNC(=O)c1nc(Cn2nc(-c3ccc(Cl)cc3)n(C[C@H](O)C(F)(F)F)c2=O)nn1-c1ncccc1Cl"
group = "NOT MET"

[[record]]
compound = "CC1(O)CCN(C(=O)c2nc(Cn3nc(-c4ccc(Cl)cc4)n(C[C@H](O)C(F)(F)F)c3=O)nn2-c2cnccc2Cl)C1 (stereo partly drawn)"
group = "NOT MET"

[[record]]
compound = "O=C(NCC(F)(F)F)c1nc(Cn2nc(-c3ccc(Cl)cc3)n(C[C@H](O)C(F)(F)F)c2=O)nn1-c1ncccc1C(F)(F)F"
group = "NOT MET"

[[record]]
compound = "O=C(c1nc(Cn2nc(-c3ccc(Cl)cc3)n(C[C@H](O)C(F)(F)F)c2=O)nn1-c1ncccc1C(F)(F)F)N1CC(O)(C(F)(F)F)C1"
group = "NOT MET"

[[record]]
compound = "O=C(NCC1(O)CC1)c1nc(Cn2nc(-c3ccc(Cl)cc3)n(C[C@H](O)C(F)(F)F)c2=O)nn1-c1ncccc1C(F)(F)F"
group = "NOT MET"


I wonder whether `CON(C)C(=O)c1nc(Cn2nc(-c3ccc(Cl)cc3)n(C[C@H](O)C(F)(F)F)c2=O)nn1-c1ccccc1Cl` has ratio IC50 hV2/hV1a below 40. Can you tell? MET
